Consider the following molecules and their measured IC50 readings.
biological target: HCV NS3/4A recombinant protease (UniProt O92972); construct: other: recombinant protease, 591 nm/622 nm FRET peptide, regression analysis; other: recombinant NS3/4A, Lineweaver-Burk; other: BV versus BR; effect o; fused on or other part: By knowledge of the vendor's product, the NS4A cofactor segment of the same polyprotein is fused to the N-terminus of the NS3 protease domain; format: biochemical; details: recombinant protease, 591 nm/622 nm FRET peptide, regression analysis; read-out: IC50, inhibition of HCV NS3/4A protease
Sequence (O92972 1027-1657): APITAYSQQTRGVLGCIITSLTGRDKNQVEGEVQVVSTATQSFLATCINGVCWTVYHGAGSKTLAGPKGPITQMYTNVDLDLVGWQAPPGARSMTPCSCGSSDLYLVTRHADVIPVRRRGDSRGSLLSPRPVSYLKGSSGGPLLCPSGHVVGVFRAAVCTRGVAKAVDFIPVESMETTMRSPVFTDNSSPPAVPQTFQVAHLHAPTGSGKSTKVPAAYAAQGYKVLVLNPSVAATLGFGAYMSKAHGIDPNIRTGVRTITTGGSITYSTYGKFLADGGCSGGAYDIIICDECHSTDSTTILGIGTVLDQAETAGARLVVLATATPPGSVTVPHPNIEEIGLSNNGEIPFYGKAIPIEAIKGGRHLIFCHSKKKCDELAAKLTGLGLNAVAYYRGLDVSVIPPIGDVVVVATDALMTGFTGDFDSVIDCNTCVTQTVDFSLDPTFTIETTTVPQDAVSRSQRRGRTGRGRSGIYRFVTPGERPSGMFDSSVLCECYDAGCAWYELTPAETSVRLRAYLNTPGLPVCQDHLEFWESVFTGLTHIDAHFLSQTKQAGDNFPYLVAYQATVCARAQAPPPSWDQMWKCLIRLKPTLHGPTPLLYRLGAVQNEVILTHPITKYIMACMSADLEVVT

TEST_SMILES | IC50
C=CC1=C(C)/C(=C/c2[nH]c(Cc3[nH]c(/C=C4\NC(=O)C(C)=C4C=C)c(C)c3CCC(=O)O)c(CCC(=O)O)c2C)NC1=O | > 300 µM
CCC1=C(C)/C(=C/c2[nH]c(Cc3[nH]c(/C=C4\NC(=O)C(C)=C4CC)c(C)c3CCC(=O)O)c(CCC(=O)O)c2C)NC1=O | > 300 µM
C=CC1=C(C)/C(=C/C2=NC(=C\c3[nH]c(/C=C4/NC(=O)C(C)=C4C=C)c(C)c3CCC(=O)OC)/C(CCC(=O)OC)=C2C)NC1=O | > 300 µM
